- Tested on: SF-268
- measurementDescription: NCI tumour cell line growth inhibition, 48 h
The source made the active and inactive calls. Cut-off read from the data, not from the text of the source: active = GI50 up to about 1.1 µM and inactive = higher.
Please reply with one of these outcomes: class 1 = active, class 0 = inactive

Input line: How did this test come out for "Cc1cccc2sc(NC(=O)NS(=O)(=O)n3cnc4ccccc43)nc12" ?
Output line: class 0

Input line: How did this test come out for OC1COC2CC(Nc3ccccn3)OC12 (configuration not stated) ?
Output line: class 0

Input line: How did this test come out for "Brc1ccc(/N=c2/nc3ccccn3n3nc(-c4ccccc4)cc23)cc1" ?
Output line: class 0

Input line: How did this test come out for "CNc1ccccc1-c1nc2ccccc2c(=O)o1" ?
Output line: class 0

Input line: How did this test come out for "N/C(=N\N=C\c1c[nH]c2ccccc12)Nc1ccccc1" ?
Output line: class 1

Input line: How did this test come out for "Cc1ccc(Nc2nc(=O)[nH]c(=O)[nH]2)cc1N=[N+]=[N-]" ?
Output line: class 0

Input line: How did this test come out for "O=c1oc2ccc3ccccc3c2cc1-c1nc2ccccc2o1" ?
Output line: class 0

Input line: How did this test come out for "CC#CCCN(CC#N)Cc1ccccc1" ?
Output line: class 0

Input line: How did this test come out for "Nc1n[nH]c(CCCCCCCc2nnc(N)[nH]2)n1" ?
Output line: class 0

Input line: How did this test come out for "Cc1ccccc1NC(=O)CC(=O)n1nc(-c2ccccc2)c(/N=N/c2ccc([N+](=O)[O-])cc2)c1-c1ccccc1" ?
Output line: class 0

Input line: How did this test come out for "CCc1ccc(Nc2cc(=O)[nH]c(=S)n2C)cc1" ?
Output line: class 0

Input line: How did this test come out for COc1ccc(C2CCc3c(cnc4nc(N)nc(N)c34)C2)cc1 (configuration not stated) ?
Output line: class 0

###

Would you mind telling me the reported GI50 of each entry?
- Tested on: OVCAR-3
- measurementDescription: NCI tumour cell line growth inhibition, 48 h
Activity calls are given as the source filed them. Cut-off read from the data, not from the text of the source: active = GI50 up to about 1.1 µM and inactive = higher.

Worked set:
Clc1nc(Cl)c(Cl)c(-c2ccccc2)n1	2.05 µM (inactive)
c1csc(C[N+]23CN4CN(CN(C4)C2)C3)c1	> 100 µM (inactive)
Cc1nc(Nc2ccccc2Cl)sc1C(=O)CC(=O)C(=O)Nc1c(Cl)cccc1Cl	17.4 µM (inactive)
O=C(c1ccccc1)c1ccc(COc2ccc(C(c3c(O)c4ccccc4oc3=O)c3c(O)c4ccccc4oc3=O)cc2)cc1	18.9 µM (inactive)
O=c1c(=O)c2c(Br)sc(Br)c2c1=O	18.5 µM (inactive)

--- query ---
Input line: Which GI50 is listed for "CCCCCCCCCCCCCCCCCC(=O)NCCCNCCCNC(=O)CCCCCCCCCCCCCCCCC" ?
Output line: 37.3 µM (inactive)

###

- System: 786-0
- measurementDescription: NCI tumour cell line growth inhibition, 48 h
Active and inactive are the calls of the source. Cut-off read from the data, not from the text of the source: active = GI50 up to about 1.1 µM and inactive = higher.
Please reply with one of these outcomes: active, inactive

Observe how each entry below is paired with its result.
CN(c1ccccc1)c1cc2ccccc2nn1	inactive
CC1(C)O[C@@H](CBr)C[C@H](C[C@H]2C[C@@H](O)C[C@@H](CCOCc3ccccc3)O2)O1	inactive
COc1ccc(C(SCC(N)C(=O)O)(c2ccc(OC)cc2)c2ccc(OC)cc2)cc1 (stereo unspecified)	inactive
CC(O)(CNS(=O)(=O)c1ccccc1)c1ccccc1 (stereo unspecified)	inactive
CCCCc1nc(C)oc1C(C)C	inactive

Let's switch to this molecule now.
Input line: How did this test come out for "C=C1CC/C=C(/C(=O)O)CC[C@H]2[C@@H]1CC2(C)C" ?
Output line: inactive
